Please provide measured self-cleavage kobs at 10000 uM GlcN6P for the entries that follow.
B1: glmS ribozyme (parent)
chain: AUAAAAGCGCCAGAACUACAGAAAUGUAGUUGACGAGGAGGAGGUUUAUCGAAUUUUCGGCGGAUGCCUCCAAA

variants of: B1; assay: self-cleavage kobs at 10000 uM GlcN6P; higher = faster cleavage; RNA array; settings: with glucosamine-6-phosphate
Fewer inactive variants are shown than the library holds.

Worked cases, self-cleavage kobs at 10000 uM GlcN6P given:
[
  {
    "Variant spec": "G13C",
    "Quantity measured": "self-cleavage kobs at 10000 uM GlcN6P",
    "Measured": "0.000135 s⁻¹"
  },
  {
    "Variant spec": "U31G G41U",
    "Quantity measured": "self-cleavage kobs at 10000 uM GlcN6P",
    "Measured": "0.000505 s⁻¹"
  },
  {
    "Variant spec": "G7C C50A",
    "Quantity measured": "self-cleavage kobs at 10000 uM GlcN6P",
    "Measured": "< 1e-05 s⁻¹"
  }
]

Please supply self-cleavage kobs at 10000 uM GlcN6P for each of the following items, keeping them in order.
1. G9C U54A
2. G9A U47C G51U G63A
3. A42C G59C C67G
4. C58A C68U

1: < 1e-05 s⁻¹; 2: < 1e-05 s⁻¹; 3: < 1e-05 s⁻¹; 4: 0.000251 s⁻¹

Where do the numbers come from? From the supplement of paper PMC7125110.
